Study system: UniProt:O00187
Protocol details: MASP-2 co-crystallization, X-ray crystallography and structure analysis (H-bonds, van der Waals contacts)
Experimental conditions: Table A5-2 pharmacophore distance, S3/S4 region
Listed here: items and their measured d(N2,C4)4.
The response must contain the number and no unit.

Examples with answers:
• Cc1nc(N)ccc1CNC(=O)[C@H](C)NC(=O)[C@H]1C[C@H](Cc2cccc(Cl)c2)CN1.Cl.Cl [1328_1] = 8.09
• Cc1nc(N)ccc1CNC(=O)[C@H](C)NC(=O)[C@H]1C[C@H](Cc2cccc(Cl)c2)CN1.Cl.Cl [1328_2] = 7.87
• C[C@H](NC(=O)[C@H]1C[C@H](c2ccccc2)CN1)C(=O)NCc1ccc2c(N)nccc2c1 [compound 1090] = 7.94
• Cc1nc(N)ccc1CNC(=O)[C@H](C)NC(=O)[C@H]1C[C@H](Cc2cccc(Cl)c2)CN1.Cl.Cl [1328_3] = 7.95

Tell us which d(N2,C4)4 value is on record for Cc1nc(N)ccc1CNC(=O)[C@H](C)NC(=O)[C@H]1C[C@H](Cc2cccc(Cl)c2)CN1.Cl.Cl [1328_4]
7.92

====

Listed here: items and their measured Ligand-pharmacophore element distance, pharmacophore element CA1.
Study system: MASP-2 CCP2-SP (Homo sapiens (Human))
Protocol details: MASP-2 co-crystallization, X-ray crystallography and structure analysis (H-bonds, van der Waals contacts)
Experimental conditions: Table A4-1; element CA1
Structures can show the parent of a compound that is named as a salt.
The response must contain the number and no unit.

• Cc1nc(N)ccc1CNC(=O)[C@H](C)NC(=O)[C@H]1C[C@@H](c2ccccc2)CCN1 [compound 1253, Dihydrochloride] = 0.59
• C[C@H](NC(=O)[C@H](N)CCc1ccccc1)C(=O)NCc1ccc(N)nc1.Cl.Cl [1007_2] = 0.59

# input for lookup
Tell us which Ligand-pharmacophore element distance, pharmacophore element CA1 value is on record for Cc1nc(N)ccc1CNC(=O)[C@H](C)NC(=O)[C@H]1C[C@H](Cc2cc(-c3ccccc3)cs2)CN1 [compound 1399, Dihydrochloride]
0.59

====

Study system: UniProt:O00187
Protocol details: MASP-2 co-crystallization, X-ray crystallography and structure analysis (H-bonds, van der Waals contacts)
Experimental conditions: Table A7-1; between pharmacophore elements of the bound compound
Structures can show the parent of a compound that is named as a salt.
Rule: measured Pharmacophore torsion angle a(H4, O1, O2, N2) below 100 gets class 1; anything equal to or greater than 100 gets class 0.

Solved cases below.
- C[C@H](NC(=O)[C@H](N)CCc1cc(Cl)cc(Cl)c1)C(=O)NCc1ccc(C(=N)N)cc1: class 0
- CC(=O)Nc1ccc(CCN[C@H](CCc2ccccc2)C(=O)N[C@@H](C)C(=O)NCc2ccc(N)nc2C)cc1 [compound 1368, Dihydrochloride]: class 1
- C[C@H](NC(=O)[C@H]1C[C@@H](c2ccccc2)CCN1)C(=O)NCc1cc(Cl)ccc1O.Cl [1078_7]: class 1
- C[C@H](NC(=O)[C@H](N)C1Cc2ccccc2C1)C(=O)NCc1ccc2c(N)nccc2c1.Cl.Cl [1088_A]: class 0

Does the reported Pharmacophore torsion angle a(H4, O1, O2, N2) of the following compound sit strictly below 100? Cc1nc(N)ccc1CNC(=O)[C@H](C)NC(=O)[C@H]1C[C@H](Cc2cccc(-c3ccccc3)c2)CN1
class 0

Does the reported Pharmacophore torsion angle a(H4, O1, O2, N2) of the following compound sit strictly below 100? C[C@H](NC(=O)[C@H]1C[C@@H](c2ccccc2)CCN1)C(=O)NCc1cc(Cl)ccc1O.Cl [1078_14]
class 1

====

Study system: MASP-2 CCP2-SP (Homo sapiens (Human), UniProt O00187)
Sequence (O00187 445-686): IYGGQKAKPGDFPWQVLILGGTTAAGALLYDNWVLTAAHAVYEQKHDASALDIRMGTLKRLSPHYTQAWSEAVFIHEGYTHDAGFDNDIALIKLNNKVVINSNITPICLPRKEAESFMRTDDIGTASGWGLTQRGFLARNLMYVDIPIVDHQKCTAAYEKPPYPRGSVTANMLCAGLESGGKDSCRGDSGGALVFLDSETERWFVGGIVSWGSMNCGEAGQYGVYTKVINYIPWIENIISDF
Sequence (O00187 364-432 partner): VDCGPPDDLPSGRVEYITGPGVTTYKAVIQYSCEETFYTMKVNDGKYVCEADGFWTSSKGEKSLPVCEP
Protocol details: MASP-2 co-crystallization, X-ray crystallography and structure analysis (H-bonds, van der Waals contacts)
Design: unit not given beside the values
Experimental conditions: Table A2-13; MASP-2 TRP 655 CE3; compound atom in line below
Listed here: items and their measured van der Waals contact distance TRP 655 atom CE3.
The response must contain the number and no unit.

• Cc1nc(N)ccc1CNC(=O)[C@H](C)NC(=O)[C@H]1C[C@@H](c2ccccc2)CCN1C = 3.65

# input for lookup
Enter measured van der Waals contact distance TRP 655 atom CE3, system MASP-2 CCP2-SP (Homo sapiens (Human), UniProt O00187), for the molecule shown: Cc1cc(Cl)cc(CNC(=O)[C@H](C)NC(=O)[C@H]2C[C@H](Cc3ccccc3)CN2)c1O
3.75

====

Listed here: items and their measured Ligand-pharmacophore element distance, pharmacophore element C5.
Study system: MASP-2 CCP2-SP (Homo sapiens (Human))
Protocol details: MASP-2 co-crystallization, X-ray crystallography and structure analysis (H-bonds, van der Waals contacts)
Experimental conditions: Table A4-1; element C5
The response must contain the number and no unit.

Examples with answers:
- Cc1nc(N)ccc1CNC(=O)C(C)NC(=O)[C@H]1C[C@H](c2cccc(-c3ccccc3)c2)CN1 (stereo in doubt): 0
- Cc1nc(N)ccc1CNC(=O)[C@H](C)NC(=O)[C@H]1C[C@H](Cc2cccc(Cl)c2)CN1.Cl.Cl [1328_2]: 0
- C[C@H](NC(=O)[C@H]1C[C@@H](c2ccccc2)CCN1)C(=O)NCc1cc(Cl)ccc1O.Cl [1078_4]: 0.52
- Cc1nc(N)ccc1CNC(=O)[C@H](C)NC(=O)[C@H]1C[C@@H](c2cccc3ccccc23)CCN1.Cl.Cl [1297_4]: 0
- Cc1nc(N)ccc1CNC(=O)[C@H](C)NC(=O)[C@H]1C[C@@H](Cc2ccccc2)CCN1: 0

Tell us which Ligand-pharmacophore element distance, pharmacophore element C5 value is on record for C[C@H](NC(=O)[C@H]1C[C@@H](c2ccccc2)CN1)C(=O)NCc1ccc2c(N)nccc2c1.Cl.Cl [1089_B]
0

Tell us which Ligand-pharmacophore element distance, pharmacophore element C5 value is on record for Cc1cnc(NCCc2ccccc2)c(=O)n1CC(=O)NCc1ccc2nc(N)[nH]c2c1
0

Tell us which Ligand-pharmacophore element distance, pharmacophore element C5 value is on record for Cc1nc(N)ccc1CNC(=O)[C@H](C)NC(=O)[C@H]1C[C@H](Cc2cccc(Cl)c2)CN1.Cl.Cl [1328_3]
0

Tell us which Ligand-pharmacophore element distance, pharmacophore element C5 value is on record for C[C@H](NC(=O)[C@H]1C[C@@H](c2ccccc2)CCN1)C(=O)NCc1cc(Cl)ccc1O.Cl [1078_3]
0.45

Tell us which Ligand-pharmacophore element distance, pharmacophore element C5 value is on record for N=C(N)c1ccc(CNC(=O)[C@@H]2CCN2C(=O)[C@H]2Cc3ccccc3CN2)cc1
0

Tell us which Ligand-pharmacophore element distance, pharmacophore element C5 value is on record for C[C@H](NC(=O)[C@@H](CCc1ccccc1)NCc1ccc(N2CCOCC2)cc1)C(=O)NCc1ccc(C(=N)N)cc1
0

Tell us which Ligand-pharmacophore element distance, pharmacophore element C5 value is on record for C[C@H](NC(=O)C1C[C@@H](c2ccccc2)CCN1)C(=O)NCc1ccc(C(=N)N)cc1 (stereo in doubt)
0

Tell us which Ligand-pharmacophore element distance, pharmacophore element C5 value is on record for C[C@H](NC(=O)[C@H]1C[C@H](Cc2ccccc2)CN1)C(=O)NCc1cnc2[nH]cc(Cl)c2c1
0.34

====

Study system: MASP-2 CCP2-SP (Homo sapiens (Human), UniProt O00187)
Protocol details: MASP-2 co-crystallization, X-ray crystallography and structure analysis (H-bonds, van der Waals contacts)
Experimental conditions: Table A7-1; between pharmacophore elements of the bound compound
Where a name gives a salt, the structure may show the parent alone.
Listed here: items and their measured Pharmacophore torsion angle a(N1, CA1, O1, H4).
The response must contain the number and no unit.

- Cc1nc(N)ccc1CNC(=O)[C@H](C)NC(=O)[C@H]1C[C@@H](c2ccccc2)CCN1C [compound 1441]: −6.82

Tell us which Pharmacophore torsion angle a(N1, CA1, O1, H4) value is on record for Cc1nc(N)ccc1CNC(=O)[C@H](C)NC(=O)[C@H]1C[C@H](Cc2cccc(Cl)c2)CN1.Cl.Cl [1328_4]
58.16

Tell us which Pharmacophore torsion angle a(N1, CA1, O1, H4) value is on record for Cc1nc(N)ccc1CNC(=O)[C@H](C)NC(=O)[C@H]1C[C@@H](c2cccc3ccccc23)CCN1.Cl.Cl [1297_2]
23.27

Tell us which Pharmacophore torsion angle a(N1, CA1, O1, H4) value is on record for Cc1nc(N)ccc1CNC(=O)[C@H](C)NC(=O)[C@H]1C[C@H](Cc2ccccc2-c2ccccc2)CN1 [compound 1373, Di-trifluoroacetate salt]
4.28

====

Study system: MASP-2 CCP2-SP (Homo sapiens (Human), UniProt O00187)
Protocol details: MASP-2 co-crystallization, X-ray crystallography and structure analysis (H-bonds, van der Waals contacts)
Set-up: unit not given beside the values
Experimental conditions: Table A5-1 pharmacophore: distance between elements, S2/S1 region
From the text: This example illustrates the preparation of recombinant MASP-2 protein, based on UniProt O00187, human mannan-binding lectin serine protease 2. Expression constructs for human MASP-2 CCP2-SP and CCP2-SP-6HIS were generated for recombinant expression in E. coli cells. […]
Rule: measured d(H4,O2) below 4 gets Yes; anything equal to or greater than 4 gets No.

Solved cases below.
* C[C@H](NC(=O)[C@H]1C[C@@H](c2ccccc2)CCN1)C(=O)NCc1cc(Cl)ccc1O.Cl [1078_2] | Yes
* Cc1nc(N)ccc1CNC(=O)[C@H](C)NC(=O)c1cc(Cc2ccccc2)n[nH]1 | No
* Cc1nc(N)ccc1CNC(=O)[C@H](C)NC(=O)[C@H]1C[C@H](Cc2ccccc2Br)CN1.O=C(O)C(F)(F)F.O=C(O)C(F)(F)F [1372_A] | Yes
* N=C(N)c1ccc(CNC(=O)[C@@H]2CCN2C(=O)[C@H](NCC(=O)O)C2Cc3ccccc3C2)cc1 | No
* C[C@H](NC(=O)[C@H]1C[C@@H](c2ccccc2)CCN1)C(=O)NCc1cc(Cl)ccc1O.Cl [1078_13] | Yes

Query compound follows.
Does the reported d(H4,O2) of the following compound sit strictly below 4? C[C@H](NC(=O)[C@H]1C[C@@H](c2ccccc2)CCN1)C(=O)NCc1cc(Cl)ccc1O.Cl [1078_10]
Yes

Reference source: patent US12195427B2
